For each entry below, report its inhibition value.
test: Mycobacterium tuberculosis growth inhibition, primary screen (AID 1259343); details: at 10 µM, hits give high values
About 2,900 (47%) of roughly 6,200 compounds were called active. So high a share suggests a set chosen from earlier hits. The list shows a part of the results.
Give bare numbers, in %.

For the 6 molecules below, give their inhibition values.
1. CCOc1ccc(OCCOc2ccccc2[N+](=O)[O-])cc1
2. CCOc1ccc(OCCOc2ccc([N+](=O)[O-])cc2)cc1
3. CN(c1cccc(O)c1)S(=O)(=O)c1ccc2c(c1)OCCCO2
4. CCOc1ccc(OCCCOc2ccc([N+](=O)[O-])cc2)cc1
5. NC(=S)COc1ccccc1
6. NC(=S)COc1ccc(F)cc1

Reply:
97.3
26.5
52.4
23
65.4
77.8

Query: Entry under review: `CCc1cccc(NC(=O)Cn2nc3ccc(SC(C)C)nn3c2=O)c1` . Reported inhibition?
Reply: 77.8

* * *

test: Mycobacterium tuberculosis growth inhibition, primary screen (AID 1259343); settings: at 10 µM, hits give high values
Hit rate of the full screen: of about 6,200 compounds, about 2,900 (47%) were called active. The set was probably picked from earlier hits. This is one part of the list.
I'd appreciate it if you could supply inhibition values for the items below.
One number for each entry, in %.

Solved cases below.
INSERT INTO results (molecule, assay_result) VALUES
  ('Fc1ccc(-n2cc(-c3ccnc(NCc4ccco4)n3)cn2)cc1', 18.7),
  ('COc1cc(C)ccc1S(=O)(=O)NC(=O)C1(C)CCN1C(=O)Cc1ccc(Cl)cc1Cl (stereo unspecified)', 47.9),
  ('Cc1ccsc1/C=C/c1cc(C(F)(F)F)[nH]c(=O)n1', 36.8);

Return reported inhibition values for all items listed beneath this line.
1. CC(C)CCn1c(SCC(=O)NC(C)(C)C)nc2cc(Cl)ccc2c1=O
2. O=S(=O)(c1cc(Br)ccc1Br)N1CCCc2ccccc21
3. Cc1cc(Cl)ccc1C(=O)C1CCCN(Cc2ccc(C#CCCO)cc2)C1 (stereo unspecified)

Reply:
1: 88.4; 2: 7.14; 3: 77.5

// input: 5 molecules below; output: inhibition for each
1. COc1ccc(-c2csc(NCc3ccco3)n2)cc1
2. NC(=O)C1CCN(c2ccc(S(=O)(=O)C(F)(F)F)cc2)C1 (stereo unspecified)
3. c1ccc(Sc2c(-c3ccccc3)nc3sccn23)cc1
4. O=C(CSc1nnnn1-c1ccccc1)NNC(=O)c1ccc(O)cc1O
5. CCOC(=O)Cn1c(=NC(=O)c2ccccc2[N+](=O)[O-])sc2cc(C(C)C)ccc21

Reply:
1. 70.6
2. -74.6
3. 34.5
4. 11.6
5. 3.22

Hi there! I need inhibition for each item below, if you can.
1. O=C(CN1CCCC1c1ccccc1)Nc1cc(F)cc(F)c1 (stereo unspecified)
2. CSc1nc2c(c(=O)n(C)c(=O)n2C)n1CCCc1ccccc1

Reply:
1. 2.2
2. 28.2

* * *

test: Mycobacterium tuberculosis growth inhibition, primary screen (AID 1259343); settings: at 10 µM, hits give high values
In all, about 6,200 compounds went through this assay and about 2,900 (47%) were called active. The set was probably picked from earlier hits. This is one part of the list.
Provide the reported inhibition of each item.

Solved entries:
INSERT INTO measurements (compound, value_type, assay_result) VALUES
  ('COc1cc(C(=O)N2CCOC(COc3cccc(C(F)(F)F)c3)C2)ccc1F (configuration not stated)', 'inhibition', '62.2% (active)'),
  ('Nc1ccc2oc(-c3cncc(Br)c3)nc2c1', 'inhibition', '7.61% (inactive)'),
  ('COC(=O)c1cc(C)nc(N(C)C)c1C(=O)OC', 'inhibition', '-14.7% (inactive)'),
  ('O=C(Cc1cccc(Cl)c1)N1CCOC(COc2cccc(C(F)(F)F)c2)C1 (configuration not stated)', 'inhibition', '17.4% (inactive)');

Give one value of inhibition per listed compound.
1. Ic1cccc(-c2nnc(-c3ccccc3)o2)c1
2. Nc1ccc(Cl)c(-c2nc3cc(Cl)ccc3o2)c1
3. CCCc1nc(-c2ccc(S(N)(=O)=O)cc2)cs1

Reply:
1: 103% (active); 2: 30% (inactive); 3: -6.09% (inactive)

* * *

assay: Mycobacterium tuberculosis growth inhibition, primary screen (AID 1259343); conditions: at 10 µM, hits give high values
Out of some 6,200 compounds screened, about 2,900 (47%) were called active. So high a share suggests a set chosen from earlier hits. This is one part of the list.
Label rule met when inhibition >= 30%; otherwise rule not met.

# example entries with known answers
INSERT INTO assay_data (molecule, group_label) VALUES
  ('O=C(COC1CCCCC1)Nc1ccc(-c2nccs2)cc1', 'rule not met'),
  ('Cc1cc(=O)[nH]c(-n2nc(C3CC3)cc2NC(=O)c2cccs2)n1', 'rule met'),
  ('Cc1cc(=O)[nH]c(-n2nc(-c3cccs3)cc2NC(=O)c2c(F)cccc2Cl)n1', 'rule met');

Query: Decide: is the reported value of inhibition for CCc1csc(NC(=O)C2=NOC(c3ccccc3)C2)n1 (stereo not drawn) equal to or greater than 30%?
Reply: rule met

Query: Try `O=C(c1ccc(F)c(F)c1F)N1CCC(Cc2ccc(-n3cccc3)cc2)CC1` next.
Reply: rule met

* * *

assay: Mycobacterium tuberculosis growth inhibition, primary screen (AID 1259343); settings: at 10 µM
Hit rate of the full screen: of about 6,200 compounds, about 2,900 (47%) were called active. No stated cut-off is given here; in the data, active means inhibition above about 50%; inactive means the rest. So high a share suggests a set chosen from earlier hits. This is one part of the list.
A correct response names exactly one class from 1 (yes) (active), 0 (no) (inactive)

INSERT INTO measurements (mol, group_label) VALUES
  ('CCCc1nc2oc3cc(OC)ccc3c(=O)c2c(=O)n1CCc1ccccc1', '0 (no)'),
  ('O=c1c(Oc2ccccc2F)coc2cc(O)ccc12', '0 (no)');

Query: Called result for `O=C(Nc1ccc(I)cc1)Nc1ccc(Cl)c(Cl)c1`
Reply: 0 (no)

Query: Same for `Cc1ccc(Cl)cc1Nc1ncccc1C(=O)N[C@H]1C[C@H]2CC[C@@H]1C2`
Reply: 0 (no)

Query: Same question, `CCCc1cc(=O)oc2cc(O)ccc12` this time
Reply: 1 (yes)

Query: Please answer likewise for `Cc1cc(CSc2nnc(-c3ccc(C(C)(C)C)cc3)o2)no1`
Reply: 1 (yes)

* * *

assay: Mycobacterium tuberculosis growth inhibition, primary screen (AID 1259343); conditions: at 10 µM
The campaign covered roughly 6,200 compounds. About 2,900 (47%) were called active. No stated cut-off is given here; in the data, active means inhibition above about 50%; inactive means the rest. So high a share suggests a set chosen from earlier hits. Some of the results follow.
Permitted responses: true for active, false for inactive

INSERT INTO results (mol, group_label) VALUES
  ('CC(C)n1cc(CN2CCC(C(=O)Nc3cccc(-c4cccc(Cl)c4)c3)CC2)cn1', 'false'),
  ('Cc1cc(C)c(NC(=O)c2cc(C)nc3c2cnn3C(C)C)c(C)c1', 'true'),
  ('Cc1ccc(OCCCn2cnc3ccccc32)cc1', 'false');

Query: Called result for `FC(F)(F)c1cccc(OCCCCn2cnc3ccccc32)c1`
Reply: true

Query: Can you handle `COCc1ccc(CN2CCC(C(=O)Nc3cccc(-c4cccc(Cl)c4)c3)CC2)o1` next?
Reply: true

Query: Next entry: `CCN1c2ccccc2N(C)[C@]1(C)c1ccccc1`
Reply: true

Query: Now give it for `O=S(=O)(NC1CCCCCCC1)c1ccccc1F` too.
Reply: false

* * *

assay: Mycobacterium tuberculosis growth inhibition, primary screen (AID 1259343); settings: at 10 µM, hits give high values
About 2,900 (47%) of roughly 6,200 compounds were called active. The set was probably picked from earlier hits. Some of the results follow.
VALUE_TYPE: inhibition (%)
One number for each entry, in %.

Worked cases, inhibition given:
INSERT INTO assay_data (molecule, value_type, assay_result) VALUES
  ('CN1CCc2c(sc(NC(=O)c3cccs3)c2-c2nc3ccccc3s2)C1', 'inhibition', 45.1),
  ('O=C(Nn1cnc2ccccc21)c1ccccc1SC1CCS(=O)(=O)C1 (stereo not given)', 'inhibition', -8.68),
  ('Cc1ccc(Nc2nc(C)c([N+](=O)[O-])c(N3CCOCC3)n2)c(C)c1', 'inhibition', 2.59);

Would you mind giving inhibition for every molecule in the list below?
1. Cc1ccc(S(=O)(=O)CC(=O)Nc2sc3c(c2-c2nc4ccccc4s2)CCN(C)C3)cc1
2. CCN1CCc2c(sc(NC(=O)c3ccccc3)c2-c2nc3ccccc3s2)C1

Reply:
[-29.9, 100]

* * *

assay: Mycobacterium tuberculosis growth inhibition, primary screen (AID 1259343); conditions: at 10 µM
Out of some 6,200 compounds screened, about 2,900 (47%) were called active. No stated cut-off is given here; in the data, active means inhibition above about 50%; inactive means the rest. So high a share suggests a set chosen from earlier hits. This is one part of the list.
Parameter call: string, one of TRUE (active), FALSE (inactive)

Record excerpt, results attached:
INSERT INTO assay_data (molecule, group_label) VALUES
  ('CCOc1ccc(OCCCOc2ccccc2Br)cc1', 'TRUE'),
  ('CCOc1cc(S(=O)(=O)N2CCCCC2CC)ccc1Br (stereo unspecified)', 'FALSE'),
  ('O=C(CCC1CCCCC1)Nc1ccc(-n2cccn2)cc1', 'FALSE');

Query: Entry `CCOc1ccc(OCCCOc2cccc(C)c2C)cc1` : call = ?
Reply: TRUE

Query: Same for `O=C(Nc1nc(OCC(F)(F)F)cnc1-c1ccc(Cl)cc1Cl)c1ccco1`
Reply: TRUE

Query: Now give it for `CCOc1ccc(CCN=C=S)cc1OCC` too.
Reply: TRUE

Query: Item: `O=C(Nc1ccc(-n2cccc2)cc1)C1=CN2CCN(Cc3cscn3)C(=O)N=C2O1`
Reply: FALSE

Query: Also, CCC1CCCCN1S(=O)(=O)c1ccc(C(=O)Nc2nnc(CSC)o2)cc1 (stereo unspecified) please.
Reply: TRUE

Query: Same lookup for COc1ccc(-c2ccc(C(=O)N3CCC(C(N)=O)C3)c(F)c2)cc1 (stereo unspecified) , please.
Reply: TRUE

Query: Entry `O=C(Nc1ccc(N2CCN(C(=O)c3ccc(-c4cccc(Cl)c4)s3)CC2)nc1)c1ccco1` please
Reply: FALSE

Query: // query: `O=C1N=C2OC(C(=O)Nc3cccc(Cc4ccccc4)c3)=CN2CCN1`
Reply: TRUE
